Listed compounds paired with reported IC50
tested on: Plasmodium falciparum; assay: Antiplasmodial activity against chloroquine-resistant Plasmodium falciparum W2 Indochina; assay type: functional, organism-based
Please reply with the bare figure in µM and do not write the unit itself.

Cc1oc2nc1C(=O)N[C@H]([C@@H](C)O)c1nc(cs1)C(=O)N[C@H](C(C)C)c1nc(cs1)C(=O)N[C@@H]2C [VENTURAMIDE B]: 5.2

The record that follows has no IC50 shown yet.
Fill blank: measured IC50 of the compound Cc1oc2nc1C(=O)N[C@H](C)c1nc(cs1)C(=O)N[C@H](C(C)C)c1nc(cs1)C(=O)N[C@@H]2C [VENTURAMIDE A] is ____. 8.2
